Record form. Attribute: z-score of subpopulation abundance. Fill in for each entry.
# Tested on: Saccharomyces cerevisiae BY4741 SeMeCo community
# experiment notes: z-score of subpopulation abundance vs DMSO median, subpopulation auxotrophic for M; higher = larger share of this subpopulation than in DMSO controls
# measurement parameters: 10 µM; 24 h; SM minimal medium; subpopulation (auxotrophy): M

Check out these entries, answers already filled in.
| molecule | tgt | z-score of subpopulation abundance |
| --- | --- | --- |
| Cc1cccc(Nc2ccccc2C(=O)O)c1C | Saccharomyces cerevisiae BY4741 SeMeCo community | 0.15 |
| CC(C(=O)O)c1ccc2c(c1)[nH]c1ccc(Cl)cc12 (centres undefined) | Saccharomyces cerevisiae BY4741 SeMeCo community | -2.06 |
| CN1CCCN=C1/C=C/c1cccc(O)c1 [Oxantel Pamoate] | Saccharomyces cerevisiae BY4741 SeMeCo community | 1.17 |

Inquiry: Can you share its z-score of subpopulation abundance? I mean this molecule: CN(C)C(=O)COC(=O)Cc1ccc(OC(=O)c2ccc(NC(=N)N)cc2)cc1 [Camostat Mesilate]
Reply text: -0.25
